assayed system: Platelet-derived growth factor receptor beta (Homo sapiens)
Sequence (P09619 whole entry): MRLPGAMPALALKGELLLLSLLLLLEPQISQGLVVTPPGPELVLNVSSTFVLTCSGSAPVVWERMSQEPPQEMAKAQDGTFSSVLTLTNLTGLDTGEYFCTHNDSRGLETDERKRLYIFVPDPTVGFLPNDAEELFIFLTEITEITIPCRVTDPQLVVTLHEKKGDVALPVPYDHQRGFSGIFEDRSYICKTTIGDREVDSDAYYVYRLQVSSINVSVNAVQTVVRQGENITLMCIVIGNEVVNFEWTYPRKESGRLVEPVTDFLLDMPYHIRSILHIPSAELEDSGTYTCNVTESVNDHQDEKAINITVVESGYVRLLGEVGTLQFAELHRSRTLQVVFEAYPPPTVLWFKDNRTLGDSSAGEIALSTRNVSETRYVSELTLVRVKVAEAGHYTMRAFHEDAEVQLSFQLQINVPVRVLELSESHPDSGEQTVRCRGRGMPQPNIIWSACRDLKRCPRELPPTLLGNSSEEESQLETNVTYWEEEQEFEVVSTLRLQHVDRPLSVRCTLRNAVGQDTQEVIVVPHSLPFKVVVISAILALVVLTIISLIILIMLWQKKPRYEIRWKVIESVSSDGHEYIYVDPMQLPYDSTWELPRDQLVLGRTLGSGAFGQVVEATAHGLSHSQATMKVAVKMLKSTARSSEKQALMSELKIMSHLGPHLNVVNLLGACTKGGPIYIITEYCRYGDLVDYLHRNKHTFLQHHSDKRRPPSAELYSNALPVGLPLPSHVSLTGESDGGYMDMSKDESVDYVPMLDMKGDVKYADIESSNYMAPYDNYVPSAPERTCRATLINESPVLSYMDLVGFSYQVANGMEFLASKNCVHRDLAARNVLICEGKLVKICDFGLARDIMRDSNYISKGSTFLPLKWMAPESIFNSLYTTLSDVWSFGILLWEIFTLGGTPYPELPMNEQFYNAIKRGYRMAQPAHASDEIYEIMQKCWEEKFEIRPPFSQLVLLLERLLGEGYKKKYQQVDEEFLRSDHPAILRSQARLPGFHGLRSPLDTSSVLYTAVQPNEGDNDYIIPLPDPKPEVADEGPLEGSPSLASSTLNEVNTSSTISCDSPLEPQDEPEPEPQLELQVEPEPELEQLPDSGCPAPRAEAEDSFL
pIC50: −log10 of the molar value.
recorded endpoint: pIC50

[[record]]
item_smiles = "O=C(CC(=O)Nc1ccc2c(/C=C/c3ccccn3)n[nH]c2c1)Nc1cccc(F)c1"
measured_number = 5.68


---

assayed system: Mast/stem cell growth factor receptor Kit (Homo sapiens)
Sequence (P10721 whole entry): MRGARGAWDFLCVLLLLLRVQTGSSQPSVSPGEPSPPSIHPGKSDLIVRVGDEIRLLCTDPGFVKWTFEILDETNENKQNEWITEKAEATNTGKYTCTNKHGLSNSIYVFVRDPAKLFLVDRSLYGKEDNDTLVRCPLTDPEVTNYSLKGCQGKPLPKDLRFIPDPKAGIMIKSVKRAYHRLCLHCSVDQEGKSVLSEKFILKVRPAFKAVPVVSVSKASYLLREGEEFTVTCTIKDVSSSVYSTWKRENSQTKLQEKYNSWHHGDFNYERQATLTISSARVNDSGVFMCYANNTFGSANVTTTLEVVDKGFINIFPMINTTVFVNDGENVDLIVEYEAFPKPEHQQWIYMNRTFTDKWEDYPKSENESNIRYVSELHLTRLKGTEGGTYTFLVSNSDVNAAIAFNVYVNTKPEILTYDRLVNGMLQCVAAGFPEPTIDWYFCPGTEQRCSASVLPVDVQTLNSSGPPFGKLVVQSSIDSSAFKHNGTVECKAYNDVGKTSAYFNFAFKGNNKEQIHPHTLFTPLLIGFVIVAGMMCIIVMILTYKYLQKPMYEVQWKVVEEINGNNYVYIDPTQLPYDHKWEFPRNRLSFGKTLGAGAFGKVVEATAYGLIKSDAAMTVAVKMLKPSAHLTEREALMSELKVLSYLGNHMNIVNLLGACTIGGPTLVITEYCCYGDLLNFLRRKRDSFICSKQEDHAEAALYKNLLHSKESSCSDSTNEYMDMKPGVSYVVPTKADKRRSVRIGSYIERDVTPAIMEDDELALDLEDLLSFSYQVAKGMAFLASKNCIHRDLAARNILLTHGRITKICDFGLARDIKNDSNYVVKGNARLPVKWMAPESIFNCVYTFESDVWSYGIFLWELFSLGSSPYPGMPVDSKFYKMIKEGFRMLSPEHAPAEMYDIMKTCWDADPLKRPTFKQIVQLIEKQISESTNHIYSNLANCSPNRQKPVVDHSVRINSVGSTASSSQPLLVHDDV
assay name: Inhibition of wild type c-KIT phosphorylation at Y823 residue in human COLO320DM cells after 2 hrs by Western blot analysis
Assay type: cell-based
recorded endpoint: EC50 (nM)

[[record]]
item_smiles = "O=C(CC(=O)Nc1ccc2c(/C=C/c3ccccn3)n[nH]c2c1)Nc1cccc(F)c1"
recorded_endpoint = "EC50"
measured_number = 2050

